Data origin: ChEMBL document CHEMBL2010711

// reported GI50 per item
Tested on: SNB-75
Test: Cytotoxicity against human SNB75 cells after 48 hrs by trypan blue dye exclusion assay
Format: functional
Conditions: SNB-75, 48 h
Please give a number only; it is taken to be in nM.

Example entries begin here.
// COc1ccc2c(c1)NC1=C(C(=O)OC1)C2c1cc(OC)c2c(c1)OCO2 (stereo not drawn) : GI50 value = 42.6

Given item COc1ccc2c(c1)C(c1cc(OC)c3c(c1)OCO3)C1=C(COC1=O)N2 (stereo not drawn) , the value recorded as its GI50 is 48.7

Recorded result, "COc1cc([C@@H]2c3cc4c(cc3[C@H](O)[C@H]3COC(=O)[C@H]23)OCO4)cc(OC)c1OC" , GI50: 659

// GI50 value for "COc1cc([C@H]2C3=C(COC3=O)Nc3cc4c(cc32)OCO4)cc2c1OCO2" : 26.7

response.value for COc1ccc2c(c1)OC1=C(C(=O)OC1)C2c1cc(OC)c2c(c1)OCCO2 (stereo not drawn) (field: GI50) = 33.7

Continuing:
Record COc1ccc2c(c1)OC1=C(C(=O)OC1)C2c1cc(OC)c(OC)c(OC)c1 (stereo not drawn) . Reported GI50: 172

Data point: COc1ccc2c(c1)OC1=C(C(=O)OC1)C2c1cc(OC)c2c(c1)OCO2 (stereo not drawn) ; GI50 = 13.9
